- Test system: P388
- assay-method-text: Cytotoxicity against mouse P388 cells after 4 days by MTT assay
- Format: functional, cell-based
- assay-context: P388, 96 h
reported-property: IC50 (µM)
I only need the number, in µM, no unit after it.

Name the value of IC50 reported for C[C@H]1OC(c2ccccc2O)=N[C@@H]1C(=O)N[C@H](CCCN(O)C(=O)[C@H]1N=C(c2ccccc2O)O[C@@H]1C)C(=O)O when tested on P388.
22.4
